Origin of the recorded values: paper PMC7436063

target: CB1 (Homo sapiens, UniProt P21554); construct: gene CNR1; expressed in CHO-K1-CB1 cell line (DiscoverX), cAMP reporter platform; experiment: cAMP assay (HitHunter), inhibition of forskolin-stimulated cAMP in CHO-K1-CB1 cells; format: cell-based; conditions: read-out: Receptor Potency (μM) / ^b IC50 (Antagonist) / CB1
Sequence (P21554 whole entry): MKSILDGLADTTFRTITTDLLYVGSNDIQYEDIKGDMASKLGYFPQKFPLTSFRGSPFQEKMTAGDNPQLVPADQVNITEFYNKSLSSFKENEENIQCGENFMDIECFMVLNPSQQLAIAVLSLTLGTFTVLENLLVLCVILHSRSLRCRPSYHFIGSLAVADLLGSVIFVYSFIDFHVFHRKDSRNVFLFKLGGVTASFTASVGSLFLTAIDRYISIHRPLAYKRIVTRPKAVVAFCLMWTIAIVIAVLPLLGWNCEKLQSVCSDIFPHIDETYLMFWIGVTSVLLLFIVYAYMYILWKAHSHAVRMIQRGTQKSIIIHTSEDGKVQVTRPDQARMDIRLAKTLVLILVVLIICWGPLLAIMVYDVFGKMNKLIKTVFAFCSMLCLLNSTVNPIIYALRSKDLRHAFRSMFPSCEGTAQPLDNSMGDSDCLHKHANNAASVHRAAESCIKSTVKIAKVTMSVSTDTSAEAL
Value Type: IC50

If you can, please state the reported IC50 value of `C=C(C)[C@@H]1CCC(C)=C[C@H]1c1c(O)cc(CCCCC)c(C(=O)O)c1O` .
> 10 µM
